measure: IC50

Form field IC50 for item O=c1c2ccccc2nc(CN2CCC(Nc3nc4ccccc4n3Cc3ccc(F)cc3)CC2)n1O [Entry 1] on 5-LO (UniProt P09917): < 1 µM

The reported IC50 value, 5-LO (UniProt P09917), for COc1ccc2nc(CN3CCC(Nc4nc5ccccc5n4Cc4ccc(F)cc4)CC3)n(O)c(=O)c2c1 [Entry 7] reads < 10 µM

Log: 5-LO (UniProt P09917), molecule O=c1c2cc(Cl)ccc2nc(N2CCC(Nc3nc4ccccc4n3Cc3ccc(F)cc3)CC2)n1O [Entry 19] , IC50 = < 1 µM

5-LO (UniProt P09917) data for O=C(O)c1ccc2c(=O)n(O)c(CN3CCC(=C4c5ccc(Cl)cc5CCc5cccnc54)CC3)nc2c1 [Entry 3] ; its IC50: < 10 µM

Measured on 5-LO (UniProt P09917), Cc1cccc2c(=O)n(O)c(CN3CCC(=C4c5ccc(Cl)cc5CCc5cccnc54)CC3)nc12 [Entry 4] has a documented IC50 of < 10 µM
